# target of assay: Piezo1 (Mus musculus, UniProt E2JF22)
# Construct: native full-length channel in primary cultured cholangiocytes (DIV5) from intrahepatic bile duct units; monomer ~290 kD band reported for GFP-tagged protein
# Sequence (E2JF22 whole entry): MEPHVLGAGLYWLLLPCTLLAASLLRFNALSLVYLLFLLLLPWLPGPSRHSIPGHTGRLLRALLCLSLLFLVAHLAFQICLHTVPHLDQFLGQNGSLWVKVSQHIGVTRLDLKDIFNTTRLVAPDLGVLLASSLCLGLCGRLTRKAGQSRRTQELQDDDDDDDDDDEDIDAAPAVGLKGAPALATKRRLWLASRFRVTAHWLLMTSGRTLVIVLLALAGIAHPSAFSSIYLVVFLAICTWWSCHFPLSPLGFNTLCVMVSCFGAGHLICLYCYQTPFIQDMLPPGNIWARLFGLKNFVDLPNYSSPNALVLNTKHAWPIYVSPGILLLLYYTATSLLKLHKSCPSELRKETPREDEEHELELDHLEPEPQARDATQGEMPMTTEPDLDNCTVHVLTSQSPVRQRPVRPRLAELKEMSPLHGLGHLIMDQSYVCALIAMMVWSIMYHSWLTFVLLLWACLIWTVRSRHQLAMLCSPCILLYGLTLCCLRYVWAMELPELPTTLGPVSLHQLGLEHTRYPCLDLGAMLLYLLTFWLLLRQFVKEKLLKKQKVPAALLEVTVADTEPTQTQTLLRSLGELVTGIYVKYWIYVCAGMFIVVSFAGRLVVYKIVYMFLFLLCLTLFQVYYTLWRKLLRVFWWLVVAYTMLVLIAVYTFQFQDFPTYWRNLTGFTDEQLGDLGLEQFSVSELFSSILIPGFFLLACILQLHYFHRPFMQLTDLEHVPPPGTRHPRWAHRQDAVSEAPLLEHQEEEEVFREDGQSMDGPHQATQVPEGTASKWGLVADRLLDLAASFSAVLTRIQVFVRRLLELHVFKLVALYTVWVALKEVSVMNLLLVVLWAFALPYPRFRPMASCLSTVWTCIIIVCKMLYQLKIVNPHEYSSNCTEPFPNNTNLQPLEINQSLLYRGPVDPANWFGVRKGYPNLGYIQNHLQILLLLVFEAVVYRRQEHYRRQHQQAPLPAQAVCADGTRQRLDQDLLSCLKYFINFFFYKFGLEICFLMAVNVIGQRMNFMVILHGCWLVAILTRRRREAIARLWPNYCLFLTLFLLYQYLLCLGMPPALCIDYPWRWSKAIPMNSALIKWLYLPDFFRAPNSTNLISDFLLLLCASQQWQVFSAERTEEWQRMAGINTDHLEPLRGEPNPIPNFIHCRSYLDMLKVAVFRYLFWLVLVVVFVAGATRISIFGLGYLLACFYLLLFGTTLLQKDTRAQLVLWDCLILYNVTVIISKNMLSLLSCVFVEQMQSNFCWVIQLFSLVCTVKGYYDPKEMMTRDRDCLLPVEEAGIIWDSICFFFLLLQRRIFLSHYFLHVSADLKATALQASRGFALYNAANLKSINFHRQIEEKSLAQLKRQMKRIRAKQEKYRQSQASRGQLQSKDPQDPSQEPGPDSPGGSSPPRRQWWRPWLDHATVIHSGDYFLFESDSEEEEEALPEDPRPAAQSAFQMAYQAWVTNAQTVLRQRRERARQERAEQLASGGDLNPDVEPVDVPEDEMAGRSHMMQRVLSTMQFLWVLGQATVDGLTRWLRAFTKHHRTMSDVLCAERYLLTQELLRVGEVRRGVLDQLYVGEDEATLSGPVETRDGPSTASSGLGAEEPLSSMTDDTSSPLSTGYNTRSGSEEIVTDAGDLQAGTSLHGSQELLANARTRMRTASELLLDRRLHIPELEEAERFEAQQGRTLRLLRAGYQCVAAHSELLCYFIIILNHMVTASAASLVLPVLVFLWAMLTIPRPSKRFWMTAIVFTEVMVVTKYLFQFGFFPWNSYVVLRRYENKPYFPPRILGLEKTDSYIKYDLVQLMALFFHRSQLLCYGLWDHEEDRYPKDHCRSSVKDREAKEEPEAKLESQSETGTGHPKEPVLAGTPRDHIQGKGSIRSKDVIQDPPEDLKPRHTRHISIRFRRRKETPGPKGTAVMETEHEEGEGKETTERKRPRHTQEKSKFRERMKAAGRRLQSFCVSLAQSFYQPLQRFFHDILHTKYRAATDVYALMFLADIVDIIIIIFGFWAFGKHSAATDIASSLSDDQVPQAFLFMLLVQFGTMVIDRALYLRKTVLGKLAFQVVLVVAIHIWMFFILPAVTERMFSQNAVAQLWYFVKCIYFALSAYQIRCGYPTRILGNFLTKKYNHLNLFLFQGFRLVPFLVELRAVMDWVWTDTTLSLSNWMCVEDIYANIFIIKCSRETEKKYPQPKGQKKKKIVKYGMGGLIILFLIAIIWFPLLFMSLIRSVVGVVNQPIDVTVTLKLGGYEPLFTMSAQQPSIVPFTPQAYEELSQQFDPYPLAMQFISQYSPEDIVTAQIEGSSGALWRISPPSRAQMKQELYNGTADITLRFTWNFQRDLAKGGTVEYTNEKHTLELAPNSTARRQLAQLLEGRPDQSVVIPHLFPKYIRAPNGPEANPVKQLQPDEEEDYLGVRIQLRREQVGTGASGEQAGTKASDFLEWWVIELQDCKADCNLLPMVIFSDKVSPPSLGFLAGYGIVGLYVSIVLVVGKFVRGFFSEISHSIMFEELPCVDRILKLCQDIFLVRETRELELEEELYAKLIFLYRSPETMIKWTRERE
# measurement protocol: Fura-2 ratiometric Ca2+ imaging
# run conditions: agonist; native DIV5 mouse cholangiocytes, 2.5 mM external Ca2+; Yoda1 without effect in Piezo1-knockout HEK293T cells; read-out: apparent EC50
measurement kind: pEC50
# pEC50 is unitless: minus log10 of the molar concentration; print number only

Can you share its pEC50? I mean this compound: Clc1cccc(Cl)c1CSc1nnc(-c2cnccn2)s1 4.53
